// values below are reported half-life at 6000 µM
- Protocol description: Half life assessed as pig liver esterase-mediated compound hydrolysis at 6 mM by HPLC analysis
- Assay type: ADME, Sus scrofa

Recorded half-life at 6000 µM, per entry:
CCCCCCCCCCCCP(=O)(OCCC#N)OP(=O)(O)OP(=O)(O)OC[C@@H]1C=C[C@H](n2cc(C)c(=O)[nH]c2=O)O1.N.N (some centres undefined)	> 80 h
CCCCCCCCCCCCP(=O)(O)OP(=O)(O)OP(=O)(O)OC[C@@H]1C=C[C@H](n2cc(C)c(=O)[nH]c2=O)O1.N.N.N	> 150 h
CCCCCCCCCCCCCCCCCCP(=O)(O)OP(=O)(O)OP(=O)(O)OC[C@@H]1C=C[C@H](n2cc(C)c(=O)[nH]c2=O)O1.N.N.N	> 80 h

Record summary for CCCCCCCCCCCCCCCCCCP(=O)(OCCC#N)OP(=O)(O)OP(=O)(O)OC[C@@H]1C=C[C@H](n2cc(C)c(=O)[nH]c2=O)O1.N.N (some centres undefined) : reported half-life at 6000 µM = > 150 h

----------
// values below are reported half-life at 1400 µM
- Protocol description: Half life in pH 7.3 PBS buffer at 1.4 mM by HPLC analysis
- Format: physicochemical
# output: bare number, implied unit days

Recorded half-life at 1400 µM, per entry:
CCCCCCCCCCCCP(=O)(OCc1ccc(OC(=O)CCCC)cc1)OP(=O)(O)OP(=O)(O)OC[C@@H]1C=C[C@H](n2cc(C)c(=O)[nH]c2=O)O1.N.N (some centres undefined)	8.96
CCCCCCCCCCCCCCP(=O)(OCc1ccc(OC(=O)CCCC)cc1)OP(=O)(O)OP(=O)(O)OC[C@@H]1C=C[C@H](n2cc(C)c(=O)[nH]c2=O)O1.N.N (some centres undefined)	21.2

Record summary for CCCCCCCCCCCCCCCCCCP(=O)(OCc1ccc(OC(=O)OCCCC)cc1)OP(=O)(O)OP(=O)(O)OC[C@@H]1C=C[C@H](n2cc(C)c(=O)[nH]c2=O)O1.N.N (some centres undefined) : reported half-life at 1400 µM = 51.7

Record summary for CCCCCCCCCCCCCCCCCCP(=O)(OCc1ccc(OC(=O)CCCC)cc1)OP(=O)(O)OP(=O)(O)OC[C@@H]1C=C[C@H](n2cc(C)c(=O)[nH]c2=O)O1.N.N (some centres undefined) : reported half-life at 1400 µM = 26.9

----------
- Protocol description: Half life in human CEM/0 cell extracts at 6 mM by HPLC analysis
- Assay type: ADME, tissue-based, CCRF-CEM
// values below are reported half-life at 6000 µM

Recorded half-life at 6000 µM, per entry:
CCCCCCCCCCCCP(=O)(OCc1ccc(OC(=O)OCCCCCCCCCCC)cc1)OP(=O)(O)OP(=O)(O)OC[C@@H]1C=C[C@H](n2cc(C)c(=O)[nH]c2=O)O1.N.N (stereo not given in full)	> 10 h
CCCCCCCCCCCCP(=O)(OCc1ccc(OC(=O)CCCCCCCCCCC)cc1)OP(=O)(O)OP(=O)(O)OC[C@@H]1C=C[C@H](n2cc(C)c(=O)[nH]c2=O)O1.N.N (stereo not given in full)	> 8 h
CCCCCCCCCCCCCCCCCCP(=O)(OCc1ccc(OC(=O)OCCCC)cc1)OP(=O)(O)OP(=O)(O)OC[C@@H]1C=C[C@H](n2cc(C)c(=O)[nH]c2=O)O1.N.N (stereo not given in full)	> 10 h
CCCCCCCCCCCCP(=O)(OCCC#N)OP(=O)(O)OP(=O)(O)OC[C@@H]1C=C[C@H](n2cc(C)c(=O)[nH]c2=O)O1.N.N (stereo not given in full)	> 15 h
CCCCCCCCCCCCP(=O)(OCc1ccc(OC(=O)OCCCC)cc1)OP(=O)(O)OP(=O)(O)OC[C@@H]1C=C[C@H](n2cc(C)c(=O)[nH]c2=O)O1.N.N (stereo not given in full)	4.3 h

Record summary for CCCCCCCCCCCCP(=O)(OCc1ccc(OC(C)=O)cc1)OP(=O)(O)OP(=O)(O)OC[C@@H]1C=C[C@H](n2cc(C)c(=O)[nH]c2=O)O1.N.N (stereo not given in full) : reported half-life at 6000 µM = 0.043 h

----------
- Protocol description: Half life in human CEM/0 cell extracts at 6 mM by HPLC analysis
- Type: ADME, tissue-based, CCRF-CEM
// values below are reported half-life at 6000 µM

Record summary for CCCCCCCCCCCCCCCCCCP(=O)(O)OP(=O)(O)OP(=O)(O)OC[C@@H]1C=C[C@H](n2cc(C)c(=O)[nH]c2=O)O1.N.N.N : reported half-life at 6000 µM = > 30 h

----------
- Protocol description: Half life in human CEM/0 cell extracts at 6 mM by HPLC analysis
- Assay type: ADME, tissue-based, CCRF-CEM
Readout kind: half-life at 6000 µM

Recorded half-life at 6000 µM, per entry:
CCCCCCCCCCCCCCCCCCP(=O)(OCCC#N)OP(=O)(O)OP(=O)(O)OC[C@@H]1C=C[C@H](n2cc(C)c(=O)[nH]c2=O)O1.N.N (stereo partly drawn)	> 10 h
CCCCCCCCCCCCCCP(=O)(OCc1ccc(OC(=O)OCCCC)cc1)OP(=O)(O)OP(=O)(O)OC[C@@H]1C=C[C@H](n2cc(C)c(=O)[nH]c2=O)O1.N.N (stereo partly drawn)	64 h

Here's the next entry for you.
Record summary for CCCCCCCCCCCCP(=O)(O)OP(=O)(O)OP(=O)(O)OC[C@@H]1C=C[C@H](n2cc(C)c(=O)[nH]c2=O)O1.N.N.N : reported half-life at 6000 µM = > 30 h

Every entry's value here was drawn from ChEMBL document CHEMBL4725417.
